This listing pairs molecules with measured cytotoxicity at 70.5 h.
Assay: Human HepG2 cell viability assay in 384 well format
Type: toxicity, cell-based
Parameters: dose 125 nL, time 70.5 hour; concentration not given beside the values
Settings: HepG2 cells, read-out: Inhibition
Write the answer as a number in %, unit excluded.

Illustrative cases are given below, each with its answer.
molecule	cytotoxicity at 70.5 h / %
CCOC(C(=O)N1CCn2c(CC)nnc2C1)c1ccccc1 (configuration not stated)	-11.9
Cc1noc(C)c1CC(=O)NCC(CC(C)C)N1CCOCC1 (configuration not stated)	-4.86
Cc1ccc(-c2cc(N)c(=O)n(CC(=O)NCC3CC3)n2)s1	-23.3
CN(C)CC1CN(Cc2ccc3c(c2)OCO3)Cc2nccn2C1 (configuration not stated)	27.2
O=C(O)C(c1ccc2c(c1)OCO2)N1CCC(C(=O)N2CCCC2)CC1 (configuration not stated)	-2.61
COC(=O)C1=C(C)N=C2SCC(=O)N2C1c1cnn(C)c1C (configuration not stated)	-1.28

INPUT: # query: cytotoxicity at 70.5 h of entry `O=C(CNCCn1cccn1)NCC1(c2ccccc2)CCCC1`
OUTPUT: 0.609

INPUT: Sample `Cn1cnc(S(=O)(=O)N2CC3(CCN(c4ccccc4)C3)C2)c1` — what was its cytotoxicity at 70.5 h?
OUTPUT: 20.3

INPUT: Look up cytotoxicity at 70.5 h: Cc1ccc(N2CCCN(C(=O)CC3C=CCC3)CC2)nn1 (configuration not stated)
OUTPUT: -4.92

INPUT: Report cytotoxicity at 70.5 h for `CCn1cc(-c2cc(C(F)F)nc3sc(C(N)=O)c(N)c23)c(C)n1` please.
OUTPUT: -3.39

INPUT: Which measured cytotoxicity at 70.5 h value corresponds to Cc1cc(N(C)CCC(O)c2ccccc2)n2nccc2n1 (configuration not stated) ?
OUTPUT: -3.24

INPUT: What does the record list as cytotoxicity at 70.5 h for CC(O)c1cccc(-n2c(CCC(=O)O)nc3ccccc32)c1 (configuration not stated) ?
OUTPUT: -8.25

INPUT: If you can, please state the reported cytotoxicity at 70.5 h value of O=C1N(Cc2cccc(F)c2F)CCCC1(O)CNC1CCCC1 (configuration not stated) .
OUTPUT: -2.45

INPUT: Can you look up the measured cytotoxicity at 70.5 h of `CO[C@@H]1CCN(S(=O)(=O)c2cn(C)cn2)[C@H]1Cc1ccncc1` for me?
OUTPUT: 4.82

INPUT: Can you share its cytotoxicity at 70.5 h? I mean this molecule: `Cc1cc(N2CCOCC2)nc(N(C)CCO)c1C#N`
OUTPUT: -5.45
